Assay: Hepatic extraction ratio in mouse liver microsomes
Assay type: ADME
Conditions: read-out: ERH
Quantity: hepatic extraction ratio

Example results:
1. O=C1C[C@]2(C(=O)Nc3ccc(Cl)cc32)c2cnn(Cc3ccc(Cl)cn3)c2N1 = 0.71
2. O=C1C[C@]2(C(=O)Nc3ccc(Cl)cc32)c2cnn(Cc3ccc(Cl)cc3)c2N1 = 0.66

[1] CN1C(=O)[C@]2(CC(=O)Nc3c2cnn3Cc2ccc(Cl)cc2)c2cc(Cl)ccc21
[2] O=C1C[C@]2(C(=O)Nc3ccc(Cl)cc32)c2cnn(Cc3ccc(C(F)(F)F)cc3)c2N1
I'd appreciate it if you could identify which of 1 and 2 has the greater hepatic extraction ratio. Pick one and reply with its label. 1

###

Items are presented alongside their recorded EC50.
Tested on: dengue virus type 2
Test: Antiviral activity against dengue virus 2 infected in human A549 cells incubated for 48 hrs by viral titer reduction assay
Assay type: functional, organism-based
Details: A549, 48 h
# output: bare number, implied unit nM

1. O=C1C[C@]2(C(=O)Nc3ccc(Cl)cc32)c2cnn(Cc3ccc(Cl)cc3)c2N1 = 12

Please look at the following compound next.
Recorded EC50 of `O=C1C[C@]2(C(=O)Nc3ccc(Cl)cc32)c2cnn(Cc3ccc(Cl)cn3)c2N1` , please. 42

###

Experiment: Tmax in Wistar rat at 25 mg/kg, po after 0.17 to 24 hrs by LC-MS/MS method
Assay type: ADME, organism-based
Set-up: dose 25 mg/kg, route oral
Conditions: in vivo
Quantity: Tmax (h)

[A] O=C1C[C@]2(C(=O)Nc3ccc(Cl)cc32)c2cnn(Cc3ccc(Cl)cc3)c2N1
[B] O=C1C[C@]2(C(=O)Nc3ccc(Cl)cc32)c2cnn(Cc3ccc(Cl)cn3)c2N1
Field: lower Tmax | Options: A / B Pick one and reply with its label. B

###

Test: Cytotoxicity against human HepG2 cells incubated for 96 hrs by CCK8 assay
Assay type: cell-based
Quantity: CC50 at 96 h

1) CN1C(=O)CC2(C(=O)Nc3ccc(Cl)cc32)c2cnn(Cc3ccc(Cl)cc3)c21 (racemic) = > 10 µM
2) O=C1C[C@@]2(C(=O)Nc3ccc(Cl)cc32)c2cnn(Cc3ccc(Cl)cn3)c2N1 = > 10 µM
3) O=C1Nc2ccc(Cl)cc2C12CCNc1c2cnn1Cc1ccc(Cl)cc1 (racemic) = 8.1 µM
4) O=C1CC2(CNc3ccc(Cl)cc32)c2cnn(Cc3ccc(Cl)cc3)c2N1 (racemic) = > 10 µM
5) O=C1CC2(C(=O)Nc3ccc(Br)cc32)c2cnn(Cc3ccc(Cl)cc3)c2N1 (racemic) = > 10 µM

Recorded CC50 at 96 h of `O=C1C[C@]2(C(=O)Nc3ccc(Cl)cc32)c2cnn(Cc3ccc(C(F)(F)F)cc3)c2N1` , please. > 10 µM

Recorded CC50 at 96 h of O=C1CC2(C(=O)Nc3ccc(Cl)cc32)c2cnn(Cc3ccc(C(F)(F)F)cc3)c2N1 (racemic) , please. > 10 µM

Recorded CC50 at 96 h of O=C1CC2(C(=O)Nc3ccc(Cl)cc32)c2cnn(Cc3ccccc3Cl)c2N1 (racemic) , please. > 10 µM

Recorded CC50 at 96 h of O=C1CC2(C(=O)Nc3ccc(Cl)cc32)c2cnn(Cc3ccc(Cl)cn3)c2N1 (racemic) , please. 33 µM

###

Assay: AUC (0 to 24 hrs) in Wistar rat at 25 mg/kg, po after 0.17 to 24 hrs by LC-MS/MS method
Type: ADME, organism-based
Set-up: time < 24 hr, dose 25 mg/kg, route oral
Conditions: plasma
Quantity: AUC(0-t) at 24 h (ng·h/mL)

[1] O=C1C[C@]2(C(=O)Nc3ccc(Cl)cc32)c2cnn(Cc3ccc(Cl)cn3)c2N1
[2] O=C1C[C@]2(C(=O)Nc3ccc(Cl)cc32)c2cnn(Cc3ccc(Cl)cc3)c2N1
Field: lower AUC(0-t) at 24 h | Options: 1 / 2 Pick one and reply with its label. 2

###

Assay: Half life in mouse liver microsomes
Assay type: ADME
Quantity: half-life (min)

Example results:
1. CN1C(=O)[C@]2(CC(=O)Nc3c2cnn3Cc2ccc(Cl)cc2)c2cc(Cl)ccc21 = 5.8
2. O=C1C[C@]2(C(=O)Nc3ccc(Cl)cc32)c2cnn(Cc3ccc(Cl)cn3)c2N1 = 24

[a] O=C1C[C@]2(C(=O)Nc3ccc(Cl)cc32)c2cnn(Cc3ccc(Cl)cc3)c2N1
[b] O=C1C[C@]2(C(=O)Nc3ccc(Cl)cc32)c2cnn(Cc3ccc(C(F)(F)F)cc3)c2N1
I'd appreciate it if you could identify which of a and b has the greater half-life. Pick one and reply with its label. b

###

Assay: Absolute oral bioavailability in Wistar rat at 25 mg/kg after 0.17 to 24 hrs by LC-MS/MS method
Format: ADME, organism-based
Conditions: in vivo
Quantity: bioavailability (%)

[a] O=C1C[C@]2(C(=O)Nc3ccc(Cl)cc32)c2cnn(Cc3ccc(Cl)cc3)c2N1
[b] O=C1C[C@]2(C(=O)Nc3ccc(Cl)cc32)c2cnn(Cc3ccc(Cl)cn3)c2N1
I'd appreciate it if you could identify which of a and b has the greater bioavailability. Pick one and reply with its label. b
(b: 63%, a: 33%)

###

Experiment: Lipophilicity, log P of the compound
Assay type: physicochemical
Details: octanol/water
Quantity: logP

1) CN1C(=O)[C@]2(CC(=O)Nc3c2cnn3Cc2ccc(Cl)cc2)c2cc(Cl)ccc21 = 4.6
2) O=C1C[C@]2(C(=O)Nc3ccc(Cl)cc32)c2cnn(Cc3ccc(C(F)(F)F)cc3)c2N1 = 4.1

[P] O=C1C[C@]2(C(=O)Nc3ccc(Cl)cc32)c2cnn(Cc3ccc(Cl)cc3)c2N1
[Q] O=C1C[C@]2(C(=O)Nc3ccc(Cl)cc32)c2cnn(Cc3ccc(Cl)cn3)c2N1
I'd appreciate it if you could identify which of P and Q has the greater logP. Pick one and reply with its label. P

###

Test: Solubility in pH 6.8 buffer
Quantity: solubility (µM)

1) CN1C(=O)[C@]2(CC(=O)Nc3c2cnn3Cc2ccc(Cl)cc2)c2cc(Cl)ccc21 = 161

[1] O=C1C[C@]2(C(=O)Nc3ccc(Cl)cc32)c2cnn(Cc3ccc(Cl)cn3)c2N1
[2] O=C1C[C@]2(C(=O)Nc3ccc(Cl)cc32)c2cnn(Cc3ccc(Cl)cc3)c2N1
I'd appreciate it if you could identify which of 1 and 2 has the greater solubility. Pick one and reply with its label. 1

Reference source: ChEMBL document CHEMBL3425504
